Target: Muscarinic acetylcholine receptor M2 (Homo sapiens, UniProt P08172); also: assay procedure not described here
Sequence (P08172 whole entry): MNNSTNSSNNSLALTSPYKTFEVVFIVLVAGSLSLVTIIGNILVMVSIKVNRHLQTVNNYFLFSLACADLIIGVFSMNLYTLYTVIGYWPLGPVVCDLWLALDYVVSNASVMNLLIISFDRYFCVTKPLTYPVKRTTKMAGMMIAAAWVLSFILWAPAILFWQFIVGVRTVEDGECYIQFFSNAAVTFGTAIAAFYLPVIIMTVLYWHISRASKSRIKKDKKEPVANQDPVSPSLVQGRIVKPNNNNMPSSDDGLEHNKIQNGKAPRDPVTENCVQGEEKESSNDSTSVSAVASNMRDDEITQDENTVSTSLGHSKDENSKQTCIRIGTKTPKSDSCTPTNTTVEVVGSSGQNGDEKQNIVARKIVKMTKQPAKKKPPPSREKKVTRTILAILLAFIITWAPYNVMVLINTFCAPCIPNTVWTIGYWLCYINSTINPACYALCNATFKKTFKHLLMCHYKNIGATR
Assay type: functional, cell-based
I'd appreciate it if you could supply AC50 values for the items below.

According to the records, this compound CC1CC(OC(=O)C(O)c2ccccc2)CC(C)(C)C1 (centres undefined) [CYCLANDELATE] displays AC50 of > 10 µM

According to the records, this compound Nc1nc(Cl)nc2c1ncn2[C@@H]1O[C@H](CO)[C@@H](O)[C@@H]1F [CLOFARABINE] displays AC50 of > 10 µM

According to the records, this compound CCCCC[C@H](O)CC[C@@H]1[C@H]2Cc3cccc(OCC(=O)O)c3C[C@H]2C[C@H]1O [TREPROSTINIL] displays AC50 of > 30 µM

According to the records, this compound O=C(C[S+]([O-])Cc1ccco1)NC/C=C\COc1cc(CN2CCCCC2)ccn1 (centres undefined) [LAFUTIDINE] displays AC50 of > 10 µM

According to the records, this compound CCCCOC(=O)c1ccc(N)cc1 [BUTAMBEN] displays AC50 of > 30 µM

According to the records, this compound CNC1(C)C2CCC(C2)C1(C)C (centres undefined) [MECAMYLAMINE] displays AC50 of > 10 µM

According to the records, this compound CCC1(C)CC(=O)NC1=O (centres undefined) [ETHOSUXIMIDE] displays AC50 of > 10 µM

According to the records, this compound C[C@H](Nc1ncnc2[nH]cnc12)c1cc2cccc(Cl)c2c(=O)n1-c1ccccc1 [DUVELISIB] displays AC50 of > 30 µM

***
According to the records, this compound O=C(O)COC(=O)Cc1ccccc1Nc1c(Cl)cccc1Cl [ACECLOFENAC] displays AC50 of > 10 µM

====

Target: Adenosine receptor A3 (Homo sapiens); also: assay procedure not described here
Sequence (P0DMS8 whole entry): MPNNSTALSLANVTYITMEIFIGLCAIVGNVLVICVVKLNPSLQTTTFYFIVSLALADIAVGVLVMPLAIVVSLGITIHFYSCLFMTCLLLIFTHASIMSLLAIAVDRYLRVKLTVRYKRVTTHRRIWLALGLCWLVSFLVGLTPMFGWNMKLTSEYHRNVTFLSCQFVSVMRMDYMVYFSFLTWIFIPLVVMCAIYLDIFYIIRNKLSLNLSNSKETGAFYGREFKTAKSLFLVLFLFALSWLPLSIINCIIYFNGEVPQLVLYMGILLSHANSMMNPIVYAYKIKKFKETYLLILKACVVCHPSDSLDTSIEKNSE
I'd appreciate it if you could supply AC50 values for the items below.

Known results for molecules:
According to the records, this molecule CC(C)/N=c1\cc2n(-c3ccc(Cl)cc3)c3ccccc3nc-2cc1Nc1ccc(Cl)cc1 [CLOFAZIMINE] displays AC50 of > 30 µM

According to the records, this molecule CCC1(C)CC(=O)NC1=O (stereo not drawn) [ETHOSUXIMIDE] displays AC50 of > 10 µM

According to the records, this molecule OCC(CO)N[C@H]1C[C@](O)(CO)[C@@H](O)[C@H](O)[C@H]1O [VOGLIBOSE] displays AC50 of > 30 µM

According to the records, this molecule C[C@H](Nc1ncnc2[nH]cnc12)c1cc2cccc(Cl)c2c(=O)n1-c1ccccc1 [DUVELISIB] displays AC50 of > 30 µM

Hello, I would appreciate it if you could give AC50 for each entry below.
1. Cc1cnc(Nc2ccc(OCCN3CCCC3)cc2)nc1Nc1cccc(S(=O)(=O)NC(C)(C)C)c1 [FEDRATINIB]
2. CC1=C(/C=C/C(C)=C/C=C/C(C)=C/C(=O)Oc2c(C)c(C)c3c(c2C)CCC(C)(CCCC(C)CCCC(C)CCCC(C)C)O3)C(C)(C)CCC1 (stereo not drawn) [TRETINOIN TOCOFERIL]

1. 6.83 µM
2. > 30 µM

Hello, I would appreciate it if you could give AC50 for each entry below.
1. CC(=O)NC[C@H]1CN(c2ccc(N3CCOCC3)c(F)c2)C(=O)O1 [LINEZOLID]
2. Cc1cccc(Nc2ccncc2S(=O)(=O)NC(=O)NC(C)C)c1 [TORSEMIDE]

> 30 µM
> 30 µM

====

As a worked illustration, we turn to AC50 data collected for Kappa-type opioid receptor (Homo sapiens).

Known results for compounds:
Entry CCN(C(C)=O)c1cccc(-c2ccnc3c(C#N)cnn23)c1 ; assay system Kappa-type opioid receptor (Homo sapiens); AC50 recorded at > 10 µM

Entry O=C(Cc1cccs1)N[C@@H]1C(=O)N2C(C(=O)[O-])=C(C[n+]3ccccc3)CS[C@H]12 ; assay system Kappa-type opioid receptor (Homo sapiens); AC50 recorded at > 30 µM

Entry Nc1nc(Cl)nc2c1ncn2[C@@H]1O[C@H](CO)[C@@H](O)[C@@H]1F ; assay system Kappa-type opioid receptor (Homo sapiens); AC50 recorded at > 10 µM

Entry COc1ccc(C(=O)c2ccccc2)c(O)c1 ; assay system Kappa-type opioid receptor (Homo sapiens); AC50 recorded at > 30 µM

Entry CCC(=O)c1ccc2c(c1)N(CC(C)N(C)C)c1ccccc1S2 (stereo not drawn) ; assay system Kappa-type opioid receptor (Homo sapiens); AC50 recorded at 1.7 µM

Entry OCCN(CCO)c1nc(N2CCCCC2)c2nc(N(CCO)CCO)nc(N3CCCCC3)c2n1 ; assay system Kappa-type opioid receptor (Homo sapiens); AC50 recorded at > 30 µM

Entry CO/N=C(\C(=O)N[C@@H]1C(=O)N2C(C(=O)[O-])=C(C[n+]3ccc(N)n3CCO)CS[C@H]12)c1csc(N)n1 ; assay system Kappa-type opioid receptor (Homo sapiens); AC50 recorded at > 30 µM

Now examine the next entry.
Entry CCOc1ccccc1OCCN[C@H](C)Cc1ccc(OC)c(S(N)(=O)=O)c1 ; assay system Kappa-type opioid receptor (Homo sapiens); AC50 recorded at > 30 µM

====

Molecular target: UniProt:P08913
Sequence (P08913 whole entry): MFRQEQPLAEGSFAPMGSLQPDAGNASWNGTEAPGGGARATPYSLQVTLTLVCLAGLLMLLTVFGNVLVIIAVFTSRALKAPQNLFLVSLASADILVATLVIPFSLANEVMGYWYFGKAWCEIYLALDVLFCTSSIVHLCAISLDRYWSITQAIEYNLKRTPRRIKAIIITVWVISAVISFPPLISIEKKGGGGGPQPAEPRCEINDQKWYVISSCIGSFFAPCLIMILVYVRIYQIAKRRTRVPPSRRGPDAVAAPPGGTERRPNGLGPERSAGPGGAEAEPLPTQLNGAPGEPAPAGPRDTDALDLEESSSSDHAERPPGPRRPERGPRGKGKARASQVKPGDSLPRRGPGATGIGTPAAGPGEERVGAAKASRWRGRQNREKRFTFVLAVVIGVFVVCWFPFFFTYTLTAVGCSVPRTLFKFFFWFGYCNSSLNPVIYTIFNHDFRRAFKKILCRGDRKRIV
Format: functional, cell-based
I'd appreciate it if you could supply AC50 values for the items below.

Known results for compounds:
According to the records, this compound Cn1cnc2c(F)c(Nc3ccc(Br)cc3F)c(C(=O)NOCCO)cc21 displays AC50 of > 30 µM

According to the records, this compound CCC1(c2ccccc2)C(=O)NCNC1=O displays AC50 of > 10 µM

According to the records, this compound C[C@H](Cn1cnc2c(N)ncnc21)OCP(=O)(O)O [TENOFOVIR ANHYDROUS] displays AC50 of > 30 µM

According to the records, this compound CCN(C(C)=O)c1cccc(-c2ccnc3c(C#N)cnn23)c1 displays AC50 of > 10 µM

According to the records, this compound Oc1cc(O)c2c(c1)O[C@H](c1ccc(O)c(O)c1)[C@@H](O)C2 displays AC50 of > 10 µM

According to the records, this compound CCNC(=O)CCC/C=C\C[C@@H]1[C@@H](/C=C/[C@@H](O)CCc2ccccc2)[C@H](O)C[C@@H]1O displays AC50 of > 30 µM

According to the records, this compound CN1CCCN=C1/C=C/c1cccc(O)c1 displays AC50 of > 30 µM

According to the records, this compound O=C(c1ccccc1)c1ccc2n1CCC2C(=O)O (centres undefined) displays AC50 of > 30 µM

Now examine the next entry.
According to the records, this compound CC(C)CN(C[C@@H](O)[C@H](Cc1ccccc1)NC(=O)O[C@H]1CCOC1)S(=O)(=O)c1ccc(N)cc1 displays AC50 of > 10 µM

====

Target: Sodium-dependent noradrenaline transporter (Homo sapiens, UniProt P23975); also: assay procedure not described here
Sequence (P23975 whole entry): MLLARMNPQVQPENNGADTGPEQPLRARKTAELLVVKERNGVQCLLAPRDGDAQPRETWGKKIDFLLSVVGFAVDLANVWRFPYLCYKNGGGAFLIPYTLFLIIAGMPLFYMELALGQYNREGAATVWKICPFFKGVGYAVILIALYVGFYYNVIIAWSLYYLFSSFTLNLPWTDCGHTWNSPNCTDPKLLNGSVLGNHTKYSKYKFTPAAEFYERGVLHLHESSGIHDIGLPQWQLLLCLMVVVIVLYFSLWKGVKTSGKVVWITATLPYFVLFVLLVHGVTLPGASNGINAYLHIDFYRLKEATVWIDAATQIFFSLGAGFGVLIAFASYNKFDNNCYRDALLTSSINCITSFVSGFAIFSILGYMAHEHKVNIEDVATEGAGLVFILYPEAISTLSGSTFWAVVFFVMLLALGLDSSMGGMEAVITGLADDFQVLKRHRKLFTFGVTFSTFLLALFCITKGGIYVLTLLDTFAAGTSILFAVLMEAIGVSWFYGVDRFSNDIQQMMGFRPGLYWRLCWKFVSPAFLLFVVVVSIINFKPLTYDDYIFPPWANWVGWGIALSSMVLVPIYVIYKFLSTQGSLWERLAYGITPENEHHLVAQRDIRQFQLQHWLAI
I'd appreciate it if you could supply AC50 values for the items below.

According to the records, this molecule CC(C)(CO)c1cc2cc(NC(=O)C3(c4ccc5c(c4)OC(F)(F)O5)CC3)c(F)cc2n1C[C@@H](O)CO [TEZACAFTOR] displays AC50 of > 30 µM

According to the records, this molecule COc1cccc2c1C(=O)c1c(O)c3c(c(O)c1C2=O)C[C@@](O)(C(=O)CO)C[C@@H]3O[C@H]1C[C@H](N)[C@H](O)[C@H](C)O1 [DOXORUBICIN] displays AC50 of > 30 µM

Now examine the next entry.
According to the records, this molecule CCC[C@@]1(CCc2ccccc2)CC(O)=C([C@H](CC)c2cccc(NS(=O)(=O)c3ccc(C(F)(F)F)cn3)c2)C(=O)O1 displays AC50 of > 30 µM

====

I'd appreciate it if you could supply AC50 values for the items below.
Biological target: Neuronal acetylcholine receptor subunit alpha-4 (Homo sapiens, UniProt P43681); also: assay procedure not described here
Sequence (P43681 whole entry): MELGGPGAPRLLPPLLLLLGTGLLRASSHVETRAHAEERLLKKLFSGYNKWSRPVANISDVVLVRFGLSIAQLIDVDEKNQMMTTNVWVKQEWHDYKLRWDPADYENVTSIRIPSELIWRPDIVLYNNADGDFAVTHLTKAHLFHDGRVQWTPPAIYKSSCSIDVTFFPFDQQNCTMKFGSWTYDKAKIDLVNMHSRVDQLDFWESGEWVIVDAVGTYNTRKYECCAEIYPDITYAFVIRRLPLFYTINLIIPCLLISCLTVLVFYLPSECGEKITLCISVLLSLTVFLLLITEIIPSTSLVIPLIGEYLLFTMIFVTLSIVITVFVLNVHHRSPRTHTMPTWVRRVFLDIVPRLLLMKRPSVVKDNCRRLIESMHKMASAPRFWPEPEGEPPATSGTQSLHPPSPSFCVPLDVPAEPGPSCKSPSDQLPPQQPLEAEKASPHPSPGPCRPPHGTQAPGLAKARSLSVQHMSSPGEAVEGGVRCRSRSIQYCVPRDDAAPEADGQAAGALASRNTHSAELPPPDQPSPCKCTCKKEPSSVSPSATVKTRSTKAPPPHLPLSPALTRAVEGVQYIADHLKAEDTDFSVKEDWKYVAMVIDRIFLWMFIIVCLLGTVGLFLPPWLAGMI

According to the records, this compound CN1CC2c3ccccc3Oc3ccc(Cl)cc3C2C1 (stereo unspecified) displays AC50 of > 30 µM

Hello, I would appreciate it if you could give AC50 for each entry below.
1. C[C@H](Cn1cnc2c(N)ncnc21)OCP(=O)(O)O [TENOFOVIR ANHYDROUS]
2. Oc1cc(Cl)ccc1Oc1ccc(Cl)cc1Cl
3. NCC1(CC(=O)O)CCCCC1

> 30 µM
> 30 µM
> 30 µM

Hello, I would appreciate it if you could give AC50 for each entry below.
1. Nc1nc(Cl)nc2c1ncn2[C@@H]1O[C@H](CO)[C@@H](O)[C@@H]1F
2. CC(C)(N)Cc1ccccc1
3. CCn1c(=O)c2c(nc(/C=C/c3ccc(OC)c(OC)c3)n2C)n(CC)c1=O
4. COc1cc2c(cc1OC)C1CC(=O)C(CC(C)C)CN1CC2 (stereo unspecified)
5. Nc1nnc(-c2cccc(Cl)c2Cl)c(N)n1
6. CS(=O)(=O)Nc1ccc([N+](=O)[O-])cc1Oc1ccccc1 [NIMESULIDE]
7. CCC(=O)O[C@H](CC(=O)O)C[N+](C)(C)C [LEVOCARNITINE PROPIONATE]

1. > 30 µM
2. > 10 µM
3. > 30 µM
4. > 30 µM
5. > 10 µM
6. 21 µM
7. > 30 µM

Hello, I would appreciate it if you could give AC50 for each entry below.
1. CN(C)[C@@H]1C(O)=C(C(=O)NCN2CCCC2)C(=O)[C@@]2(O)C(O)=C3C(=O)c4c(O)cccc4[C@@](C)(O)[C@H]3C[C@@H]12
2. N=C(N)NC(=O)c1nc(Cl)c(N)nc1N [AMILORIDE]
3. CC(C)NCC(O)COc1ccc(CC(N)=O)cc1 (stereo unspecified)
4. O=C(O)CCCC[C@@H]1SC[C@@H]2NC(=O)N[C@@H]21
5. O=C(O[C@H]1C[N+]2(CCCOc3ccccc3)CCC1CC2)C(O)(c1cccs1)c1cccs1 [ACLIDINIUM BROMIDE]
6. CC(C)(CO)c1cc2cc(NC(=O)C3(c4ccc5c(c4)OC(F)(F)O5)CC3)c(F)cc2n1C[C@@H](O)CO
7. C[C@]12CCC(=O)C=C1C=C[C@@H]1[C@@H]2CC[C@@]2(C)[C@H]1CC[C@@]21CCC(=O)O1
8. O=C(O)COC(=O)Cc1ccccc1Nc1c(Cl)cccc1Cl

["> 10 µM", "> 30 µM", "> 30 µM", "> 10 µM", "> 10 µM", "> 30 µM", "> 30 µM", "> 10 µM"]

Hello, I would appreciate it if you could give AC50 for each entry below.
1. CCC(=O)[C@@]1(C)[C@H](C)C[C@H]2[C@@H]3CCC4=CC(=O)C=C[C@]4(C)[C@H]3[C@@H](O)C[C@@]21C [RIMEXOLONE]
2. CO/N=C(\C(=O)N[C@@H]1C(=O)N2C(C(=O)O)=C(CSc3nc(C)c(CC(=O)O)s3)CS[C@H]12)c1csc(N)n1
3. CNCCc1ccccn1
4. CN1CCCN=C1/C=C/c1cccc(O)c1
5. CC(=O)OCC1=C(C(=O)O)N2C(=O)[C@@H](NC(=O)CSc3ccncc3)[C@H]2SC1
6. OCCOCCN1CCN(C(c2ccccc2)c2ccc(Cl)cc2)CC1 (stereo unspecified) [HYDROXYZINE]
7. Cc1ccc(O)c([C@H](CCN(C(C)C)C(C)C)c2ccccc2)c1

1. > 10 µM
2. > 30 µM
3. > 30 µM
4. 7.2 µM
5. > 10 µM
6. > 10 µM
7. > 10 µM

Hello, I would appreciate it if you could give AC50 for each entry below.
1. CCOC(=O)Nc1ccc(NCc2ccc(F)cc2)nc1N
2. NS(=O)(=O)c1ccc(N2CCCCS2(=O)=O)cc1
3. O=C1CC2(CCCC2)CC(=O)N1CCCCN1CCN(c2ncccn2)CC1
4. O=C(C[S+]([O-])Cc1ccco1)NC/C=C\COc1cc(CN2CCCCC2)ccn1 (stereo unspecified)
5. CC1Cc2ccccc2N1NC(=O)c1ccc(Cl)c(S(N)(=O)=O)c1 (stereo unspecified) [INDAPAMIDE]
6. CCCCCCCC(=O)CC[C@@H]1[C@@H](C/C=C\CCCC(=O)O)[C@@H](O)C[C@H]1O
7. CC(=O)SCC(Cc1ccccc1)C(=O)NCC(=O)OCc1ccccc1 (stereo unspecified)
8. CN(C)CCOC(c1ccc(Cl)cc1)c1ccccn1 (stereo unspecified)

["> 30 µM", "> 30 µM", "> 10 µM", "> 10 µM", "> 10 µM", "> 30 µM", "> 30 µM", "> 30 µM"]

Hello, I would appreciate it if you could give AC50 for each entry below.
1. COc1cc(N)cn[n+]1-c1ccccc1 [AMEZINIUM METILSULFATE]
2. CC1(C)O[C@@H]2C[C@H]3[C@@H]4CCC5=CC(=O)C=C[C@]5(C)[C@@]4(F)[C@@H](O)C[C@]3(C)[C@]2(C(=O)CO)O1 [TRIAMCINOLONE ACETONIDE]

> 10 µM
> 30 µM
